# experimental.target: Melanocyte-stimulating hormone receptor (Homo sapiens, UniProt Q01726)
# Sequence (Q01726 whole entry): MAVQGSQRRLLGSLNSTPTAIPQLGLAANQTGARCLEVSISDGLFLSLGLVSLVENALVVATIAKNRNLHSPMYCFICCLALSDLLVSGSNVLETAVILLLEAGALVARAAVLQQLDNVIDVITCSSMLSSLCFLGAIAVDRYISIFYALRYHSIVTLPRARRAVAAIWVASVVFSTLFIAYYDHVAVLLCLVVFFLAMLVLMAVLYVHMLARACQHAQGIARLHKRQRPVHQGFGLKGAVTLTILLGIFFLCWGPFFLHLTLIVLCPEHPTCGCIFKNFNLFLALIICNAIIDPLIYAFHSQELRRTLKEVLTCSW
# assay.comment: Activity at human MC1R by cAMP accumulation in SaoS2 cells
pEC50: −log10 of the molar value.
assay.metric: pEC50

entry_smiles=N=C(N)NCCC[C@@H]1NC(=O)[C@@H](Cc2ccccc2)NC(=O)[C@H](Cc2c[nH]cn2)NC(=O)CCCCCCNC(=O)[C@H](Cc2c[nH]c3ccccc23)NC1=O reading=7.17
entry_smiles=N=C(N)NCCC[C@@H]1NC(=O)[C@@H](Cc2ccccc2)NC(=O)[C@H](Cc2c[nH]cn2)NC(=O)CCCCNC(=O)[C@H](Cc2c[nH]c3ccccc23)NC1=O reading=5.48
entry_smiles=NC(N)=NCCC[C@@H]1NC(=O)[C@@H](Cc2ccccc2)NC(=O)[C@H](Cc2cnc[nH]2)NC(=O)CCCCCCCNC(=O)[C@H](Cc2c[nH]c3ccccc23)NC1=O reading=7.11
entry_smiles=NC(N)=NCCC[C@@H]1NC(=O)[C@@H](Cc2ccccc2)NC(=O)[C@H](Cc2cnc[nH]2)NC(=O)CCCNC(=O)[C@H](Cc2c[nH]c3ccccc23)NC1=O reading=6.57

(A) N=C(N)NCCC[C@@H]1NC(=O)[C@@H](Cc2ccccc2)NC(=O)[C@H](Cc2c[nH]cn2)NC(=O)CCCCCNC(=O)[C@H](Cc2c[nH]c3ccccc23)NC1=O
(B) N=C(N)NCCC[C@@H]1NC(=O)[C@H](Cc2ccccc2)NC(=O)[C@H](Cc2cnc[nH]2)NC(=O)CCCCCCCNC(=O)[C@H](Cc2c[nH]c3ccccc23)NC1=O
Request: Higher pEC50: A or B ? Pick one and reply with its label.
Response: A

====

# experimental.target: Melanocortin receptor 4 (Homo sapiens, UniProt P32245)
# Sequence (P32245 whole entry): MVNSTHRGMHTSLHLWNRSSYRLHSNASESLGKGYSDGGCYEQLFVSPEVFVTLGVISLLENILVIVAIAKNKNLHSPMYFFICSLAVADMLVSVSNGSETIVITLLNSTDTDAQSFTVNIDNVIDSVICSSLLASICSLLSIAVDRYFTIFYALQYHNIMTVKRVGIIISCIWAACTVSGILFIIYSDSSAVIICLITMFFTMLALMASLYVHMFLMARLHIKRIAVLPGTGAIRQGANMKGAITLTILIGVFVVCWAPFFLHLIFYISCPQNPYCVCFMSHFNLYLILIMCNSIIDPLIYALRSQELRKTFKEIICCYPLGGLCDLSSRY
assay.metric: Ki (nM)
Answer format: numeric, nM implied, no suffix.

Request: # Ki lookup, item NC(N)=NCCC[C@@H]1NC(=O)[C@@H](Cc2ccccc2)NC(=O)[C@H](Cc2cnc[nH]2)NC(=O)CCCCCCCNC(=O)[C@H](Cc2c[nH]c3ccccc23)NC1=O
Response: 319

====

# experimental.target: UniProtKB P32245
# assay.comment: Activity at human MC4R by cAMP accumulation in SaoS2 cells
pEC50: −log10 of the molar value.
assay.metric: pEC50

# example entries with known answers
entry_smiles=NC(N)=NCCC[C@@H]1NC(=O)[C@@H](Cc2ccccc2)NC(=O)[C@H](Cc2cnc[nH]2)NC(=O)CCCCCCCNC(=O)[C@H](Cc2c[nH]c3ccccc23)NC1=O reading=7.79
entry_smiles=NC(N)=NCCC[C@@H]1NC(=O)[C@@H](Cc2ccccc2)NC(=O)[C@H](Cc2cnc[nH]2)NC(=O)CCCNC(=O)[C@H](Cc2c[nH]c3ccccc23)NC1=O reading=5.80
entry_smiles=N=C(N)NCCC[C@@H]1NC(=O)[C@@H](Cc2ccccc2)NC(=O)[C@H](Cc2c[nH]cn2)NC(=O)CCCCNC(=O)[C@H](Cc2c[nH]c3ccccc23)NC1=O reading=4.99
entry_smiles=N=C(N)NCCC[C@@H]1NC(=O)[C@H](Cc2ccccc2)NC(=O)[C@H](Cc2cnc[nH]2)NC(=O)CCCCCCCNC(=O)[C@H](Cc2c[nH]c3ccccc23)NC1=O reading=5.02

(P) N=C(N)NCCC[C@@H]1NC(=O)[C@@H](Cc2ccccc2)NC(=O)[C@H](Cc2c[nH]cn2)NC(=O)CCCCCNC(=O)[C@H](Cc2c[nH]c3ccccc23)NC1=O
(Q) N=C(N)NCCC[C@@H]1NC(=O)[C@@H](Cc2ccccc2)NC(=O)[C@H](Cc2c[nH]cn2)NC(=O)CCCCCCNC(=O)[C@H](Cc2c[nH]c3ccccc23)NC1=O
Request: Higher pEC50: P or Q ? Pick one and reply with its label.
Response: Q

====

# experimental.target: Melanocortin receptor (M1 and M4) (Homo sapiens, UniProt P32245+Q01726)
# assay.comment: Selectivity for human MC4R over MC1R
# Assay type: functional
assay.metric: EC50 ratio (MC1R/MC4R)

entry_smiles=N=C(N)NCCC[C@@H]1NC(=O)[C@@H](Cc2ccccc2)NC(=O)[C@H](Cc2c[nH]cn2)NC(=O)CCCCCNC(=O)[C@H](Cc2c[nH]c3ccccc23)NC1=O reading=0.42

(a) N=C(N)NCCC[C@@H]1NC(=O)[C@@H](Cc2ccccc2)NC(=O)[C@H](Cc2c[nH]cn2)NC(=O)CCCCNC(=O)[C@H](Cc2c[nH]c3ccccc23)NC1=O
(b) NC(N)=NCCC[C@@H]1NC(=O)[C@@H](Cc2ccccc2)NC(=O)[C@H](Cc2cnc[nH]2)NC(=O)CCCCCCCNC(=O)[C@H](Cc2c[nH]c3ccccc23)NC1=O
Request: Which value of EC50 ratio (MC1R/MC4R) is smaller, the one for a or the one for b ? Pick one and reply with its label.
Response: a
(a: 0.33, b: 4.7)

(P) N=C(N)NCCC[C@@H]1NC(=O)[C@@H](Cc2ccccc2)NC(=O)[C@H](Cc2c[nH]cn2)NC(=O)CCCCCCNC(=O)[C@H](Cc2c[nH]c3ccccc23)NC1=O
(Q) N=C(N)NCCC[C@@H]1NC(=O)[C@H](Cc2ccccc2)NC(=O)[C@H](Cc2cnc[nH]2)NC(=O)CCCCCCCNC(=O)[C@H](Cc2c[nH]c3ccccc23)NC1=O
Request: Higher EC50 ratio (MC1R/MC4R): P or Q ? Pick one and reply with its label.
Response: P
(P: 4.3, Q: 0.53)
